This collection of values is drawn from BindingDB's records for doi:10.1021/acsmedchemlett.6b00145.

Target: UniProt:P35557
Sequence (P35557 whole entry): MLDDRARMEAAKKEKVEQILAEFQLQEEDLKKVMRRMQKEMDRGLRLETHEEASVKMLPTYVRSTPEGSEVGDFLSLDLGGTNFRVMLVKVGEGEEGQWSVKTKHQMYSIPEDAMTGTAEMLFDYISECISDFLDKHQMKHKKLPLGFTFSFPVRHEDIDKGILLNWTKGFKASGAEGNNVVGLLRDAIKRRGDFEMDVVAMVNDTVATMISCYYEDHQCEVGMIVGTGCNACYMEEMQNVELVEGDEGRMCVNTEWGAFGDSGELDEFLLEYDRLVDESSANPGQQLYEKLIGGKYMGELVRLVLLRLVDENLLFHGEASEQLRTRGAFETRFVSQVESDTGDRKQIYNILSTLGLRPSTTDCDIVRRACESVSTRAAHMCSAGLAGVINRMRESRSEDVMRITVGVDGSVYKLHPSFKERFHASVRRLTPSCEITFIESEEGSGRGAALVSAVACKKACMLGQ
Assay: Activation of human recombinant glucokinase using 5 mM glucose as substrate in presence of NAD+ by glucose 6-phosphate dehydrogenase coupled assay
READOUT_LABEL: EC50 (nM)

Write down EC50 measured for item "CNC(=O)Nc1cc(Oc2cncc(C)c2)c([C@H]2C[C@@H]2CO)cn1" 130

Return value of EC50 for input "CNC(=O)Nc1cc(Oc2cncc(C)c2)c([C@H]2C[C@@H]2C(C)(C)O)cn1" , no commentary. 83

A: CNC(=O)Nc1cc(Oc2cncc(C)c2)c([C@@H]2CC[C@@H](O)C2)cn1
B: CNC(=O)Nc1cc(Oc2cncc(OC)c2)c([C@@H]2COCC[C@@H]2O)cn1
Could you tell me which of these two has the smaller EC50 figure? First: A Second: B Could you answer with the label of the item you picked? A
(A: 97 nM, B: 940 nM)
